Values were extracted from ChEMBL document CHEMBL1126796.

Experiment: Tmax value after oral dose of 0.3 mg/kg
Type: ADME, organism-based
Design: dose 0.3 mg/kg, route oral
Conditions: in vivo
Observable: Tmax (h)
Respond numerically; units are h and should not be typed.

Answer with reported Tmax of CCCN(Cc1ccc(-c2ccccc2-c2nnn[nH]2)cc1)c1ncccc1C(=O)O 1.4

----------
Assay: Tmax value after oral dose of 0.1 mg//kg
Format: ADME, organism-based
Settings: in vivo
Observable: Tmax (h)
// units = h; emit number, no label

Determine its reported Tmax: CCCN(Cc1ccc(-c2ccccc2-c2nnn[nH]2)cc1)c1ncccc1C(=O)O 1.3

----------
Assay: Plasma clearance after intravenous dose of 1 mg/kg
Format: ADME, organism-based
Parameters: dose 1 mg/kg, route intravenous
Details: read-out: Clp
Observable: clearance (mL/min)
Reply with just the number (in mL/min).

Give the reported clearance for this compound. CCCN(Cc1ccc(-c2ccccc2-c2nnn[nH]2)cc1)c1ncccc1C(=O)O 0.07
